# Test system: SF-268
# assay-comment: NCI tumour cell line growth inhibition, 48 h
Active and inactive are the calls of the source. Cut-off read from the data, not from the text of the source: active = GI50 up to about 1.1 µM and inactive = higher.
Possible outcomes: active, inactive

[[record]]
compound = "CC1=C(C#N)S(=O)(=O)c2c(oc(C)c2C)N1"
group = "inactive"

[[record]]
compound = "Cc1cc(NC(=O)NC(=O)c2ccccc2NC(=O)CN)ccc1Oc1ncc(Br)cn1"
group = "inactive"

[[record]]
compound = "C=CCC1C(=O)Nc2cccc3ncn(c23)C1=O (configuration not stated)"
group = "inactive"

[[record]]
compound = "Brc1cccc(/C=N/C23CC4CC(CC(C4)C2)C3)c1"
group = "inactive"

[[record]]
compound = "CCOC(=O)c1sc2nc(SC)nc(Nc3ccc4c(c3)OCCCO4)c2c1N"
group = "inactive"

[[record]]
compound = "Cc1ccc(/C=C2\\NC(=S)NC2=O)cc1"
group = "inactive"

[[record]]
compound = "c1ccc2c(Nc3ncco3)cccc2c1"
group = "inactive"

[[record]]
compound = "Cc1ccc(C)c(NC(=O)c2cc(-c3ccc([N+](=O)[O-])cc3)nc(N)n2)c1"
group = "inactive"

[[record]]
compound = "O=[N+]([O-])c1cccc2nc3ccccc3c(NCCCN3CCCCC3)c12"
group = "active"

[[record]]
compound = "C=CCC1=C(C)C[C@@H]2CCC(=O)C=C12"
group = "inactive"

[[record]]
compound = "COc1cc(C2c3[nH]c4ccc(F)cc4c3C[C@H]3COC(=O)N23)cc(OC)c1O (some centres not stated)"
group = "inactive"

[[record]]
compound = "COCOCCC#CCO"
group = "inactive"

